B1: CPEB3 Ribozyme (parent)
chain: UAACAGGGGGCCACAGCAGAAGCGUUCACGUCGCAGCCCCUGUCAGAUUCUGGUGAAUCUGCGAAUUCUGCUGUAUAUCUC

Variants of: B1
protocol description: self-cleavage, relative activity (ratio to wild type); higher = more cleavage; in vitro, sequencing
readout label: self-cleavage
Give the figure only, with no unit attached.

chain_sequence=UAACAGGGGGCCACAGCAGAAGCGUUCACGUCGCAGCCCCUGUCAGAUUCUGGUGUAUCUGCGAAUUCUGAUGUAUAUCUC observed_value=0.26
chain_sequence=UAACAGGGGGCCACAGCAGAAGCGUUCACAUCGCAGCCCCUGUCAGAUUCUGGUAAAUCUGCGAAUUCUGCUGUAUAUCUC observed_value=0.2
chain_sequence=UAACAGGGGGCCACAGCAGAAGCGUUCACGUCGCAGCCCCUGUCAGAUUCUGGUGAAUCUACGAAUUCUGCUGUAUAUCAC observed_value=0.91
chain_sequence=UAACAGGGGGCCACAGCAGAAGCGUUCACGUCGCAGCCCCUGUCAGACUCUGGUGAAUUUGCGAAUUCUGCUGUAUAUCUC observed_value=0.39
chain_sequence=UAUCAGGGGGCCACAGCAGAAGCGUUCACGUCGCAGCCCCUGUCAGAUUCUGGUGAUUCUGCGAAUUCUGCUGUAUAUCUC observed_value=0.85

Here's the next entry for you.
Query string: Given UAACAGGGGGCCACACCAGAAGCGUUCACGUCGCAGCCCCUGUCAGAUUCUGGUGAAUCUGCGAACUCUGCUGUAUAUCUC , respond with its self-cleavage.
Result string: 0.16
